Assay: Phase I study: single- and multiple-dose serum pharmacokinetics of oral vorinostat 400 mg, fasted and after high-fat meal
Type: in vivo, human
Assay setup: human; 400 mg oral, single dose, fasted; serum; geometric mean

# Compound, Display unit, AUC(0-inf)
measured = [
    ("O=C(CCCCCCC(=O)Nc1ccccc1)NO [vorinostat, N-hydroxy-N′-phenyloctanediamide]", "µM·h", 3.87),
]

* * *

As shown below, each of these molecules has a reported Average SAHA % Dissolved at Time, minutes 20 value.
Assay: Dissolution rate of about 100 mg SAHA API before encapsulation (USP Dissolution Apparatus II, 900 mL 2.0% Tween, 37±0.5° C., 100 rpm, HPLC)
Assay type: physicochemical
Assay setup: 20 minutes
Parameter: Average SAHA % Dissolved at Time, minutes 20

# Molecule, Experimental value
records = [
    ("O=C(CCCCCCC(=O)Nc1ccccc1)NO [1007D, suberoylanilide hydroxamic acid]", "52.1%"),
    ("O=C(CCCCCCC(=O)Nc1ccccc1)NO [1136-1136-00-001, suberoylanilide hydroxamic acid]", "57.3%"),
    ("O=C(CCCCCCC(=O)Nc1ccccc1)NO [1008D, suberoylanilide hydroxamic acid]", "41.5%"),
    ("O=C(CCCCCCC(=O)Nc1ccccc1)NO [1376-C-RO-02, suberoylanilide hydroxamic acid]", "47.1%"),
]

* * *

Assay: Phase I study: single- and multiple-dose serum pharmacokinetics of oral vorinostat 400 mg, fasted and after high-fat meal
Assay type: in vivo, human
Assay setup: 400 mg oral, multiple doses (once daily for 22 days), fed; serum; geometric mean
Parameter: Cmax (nM)

# Molecule, Display unit, Experimental value
data = [
    ("O=C(CCCCCCC(=O)Nc1ccccc1)NO [vorinostat, N-hydroxy-N′-phenyloctanediamide]", "nM", 1130),
]

* * *

Assay: Dissolution rate of about 100 mg SAHA API before encapsulation (USP Dissolution Apparatus II, 900 mL 2.0% Tween, 37±0.5° C., 100 rpm, HPLC)
Format: physicochemical
Assay setup: 60 minutes
Listed next: entries and their corresponding Average SAHA % Dissolved at Time, minutes 60.
Parameter: Average SAHA % Dissolved at Time, minutes 60 (%)

# Molecule, Display unit, Experimental value
data = [
    ("O=C(CCCCCCC(=O)Nc1ccccc1)NO [1007D, suberoylanilide hydroxamic acid]", "%", 79.3),
    ("O=C(CCCCCCC(=O)Nc1ccccc1)NO [1376-C-RO-02, suberoylanilide hydroxamic acid]", "%", 78.3),
    ("O=C(CCCCCCC(=O)Nc1ccccc1)NO [1008D, suberoylanilide hydroxamic acid]", "%", 69.8),
    ("O=C(CCCCCCC(=O)Nc1ccccc1)NO [1136-1136-00-001, suberoylanilide hydroxamic acid]", "%", 87.7),
]

* * *

Assay: Dissolution rate of about 100 mg SAHA API before encapsulation (USP Dissolution Apparatus II, 900 mL 2.0% Tween, 37±0.5° C., 100 rpm, HPLC)
Format: physicochemical
Assay setup: 15 minutes
# Average SAHA % Dissolved at Time, minutes 15 listing for each entry below
Parameter: Average SAHA % Dissolved at Time, minutes 15 (%)

# Molecule, Experimental value
data = [
    ("O=C(CCCCCCC(=O)Nc1ccccc1)NO [1136-1136-00-001, suberoylanilide hydroxamic acid]", 48.9),
    ("O=C(CCCCCCC(=O)Nc1ccccc1)NO [1376-C-RO-02, suberoylanilide hydroxamic acid]", 39.7),
    ("O=C(CCCCCCC(=O)Nc1ccccc1)NO [1008D, suberoylanilide hydroxamic acid]", 34.8),
    ("O=C(CCCCCCC(=O)Nc1ccccc1)NO [1007D, suberoylanilide hydroxamic acid]", 46.1),
]
